The reader will find reported CCKA pKi values listed item by item below.
# TESTED ON: CCKA (Cavia porcellus)
# Construct: The pancreatata were homogenised in 40 ml ice-cold HEPES buffer; from tissue; host or cells: pancreas membranes of male Dunkin Hartley guinea-pigs
# Sequence (Q63931 whole entry): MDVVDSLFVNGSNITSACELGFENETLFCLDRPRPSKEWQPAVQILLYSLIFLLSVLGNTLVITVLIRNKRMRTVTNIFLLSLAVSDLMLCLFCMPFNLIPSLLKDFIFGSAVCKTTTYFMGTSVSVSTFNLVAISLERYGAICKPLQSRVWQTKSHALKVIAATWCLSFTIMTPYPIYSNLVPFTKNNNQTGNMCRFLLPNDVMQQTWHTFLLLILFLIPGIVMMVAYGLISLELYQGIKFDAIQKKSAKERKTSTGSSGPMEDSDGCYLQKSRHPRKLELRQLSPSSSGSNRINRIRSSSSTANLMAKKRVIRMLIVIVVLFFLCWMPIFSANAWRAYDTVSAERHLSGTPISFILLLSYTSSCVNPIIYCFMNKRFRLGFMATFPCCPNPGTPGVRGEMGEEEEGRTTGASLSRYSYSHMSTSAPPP
# EXPERIMENTAL PROTOCOL: CCKA binding assay (guinea-pig pancreas membranes)
# TEST PARAMETERS: [125I]-CCK8(S) 200 pM, 0.375 μM PD134,308 present, 150 minutes at 21±3° C.

- ENTRY SMILES: "O=C(O)c1cc(NC(=O)[C@H](Cc2ccccc2)NC(=O)c2ccccc2C(=O)NCc2cccc3ccccc23)cc(C(=O)O)c1"
  CCKA pKi: 7.0
- ENTRY SMILES: "O=C(O)c1cc(NC(=O)[C@H](Cc2ccccc2)NC(=O)c2ccccc2C(=O)NCC23CC4CC(CC(C4)C2)C3)cc(C(=O)O)c1"
  CCKA pKi: 5.5
- ENTRY SMILES: "O=C(O)c1cc(NC(=O)[C@H](Cc2ccccc2F)NC(=O)c2ccccc2C(=O)NCC23CC4CC(CC(C4)C2)C3)cc(C(=O)O)c1"
  CCKA pKi: 5.3
- ENTRY SMILES: "O=C(O)c1cc(NC(=O)[C@H](Cc2ccccc2)NC(=O)c2ccccc2C(=O)NCC2CCCCCC2)cc(C(=O)O)c1"
  CCKA pKi: 5.9
- ENTRY SMILES: "O=C(O)c1cc(NC(=O)[C@H](Cc2ccccc2)NC(=O)c2cocc2C(=O)NCC23CC4CC(CC(C4)C2)C3)cc(C(=O)O)c1"
  CCKA pKi: 5.2
- ENTRY SMILES: "O=C(O)c1cc(NC(=O)[C@H](Cc2ccccc2)NC(=O)c2ccccc2C(=O)NCc2ccc3ccccc3c2)cc(C(=O)O)c1"
  CCKA pKi: 6.3
